target or system: Recombinant human integrin αVβ5 (Homo sapiens, UniProt P06756+P18084)
Construct: purchased R&D Systems 2528-AV
Sequence (P06756 31-992 limits assumed): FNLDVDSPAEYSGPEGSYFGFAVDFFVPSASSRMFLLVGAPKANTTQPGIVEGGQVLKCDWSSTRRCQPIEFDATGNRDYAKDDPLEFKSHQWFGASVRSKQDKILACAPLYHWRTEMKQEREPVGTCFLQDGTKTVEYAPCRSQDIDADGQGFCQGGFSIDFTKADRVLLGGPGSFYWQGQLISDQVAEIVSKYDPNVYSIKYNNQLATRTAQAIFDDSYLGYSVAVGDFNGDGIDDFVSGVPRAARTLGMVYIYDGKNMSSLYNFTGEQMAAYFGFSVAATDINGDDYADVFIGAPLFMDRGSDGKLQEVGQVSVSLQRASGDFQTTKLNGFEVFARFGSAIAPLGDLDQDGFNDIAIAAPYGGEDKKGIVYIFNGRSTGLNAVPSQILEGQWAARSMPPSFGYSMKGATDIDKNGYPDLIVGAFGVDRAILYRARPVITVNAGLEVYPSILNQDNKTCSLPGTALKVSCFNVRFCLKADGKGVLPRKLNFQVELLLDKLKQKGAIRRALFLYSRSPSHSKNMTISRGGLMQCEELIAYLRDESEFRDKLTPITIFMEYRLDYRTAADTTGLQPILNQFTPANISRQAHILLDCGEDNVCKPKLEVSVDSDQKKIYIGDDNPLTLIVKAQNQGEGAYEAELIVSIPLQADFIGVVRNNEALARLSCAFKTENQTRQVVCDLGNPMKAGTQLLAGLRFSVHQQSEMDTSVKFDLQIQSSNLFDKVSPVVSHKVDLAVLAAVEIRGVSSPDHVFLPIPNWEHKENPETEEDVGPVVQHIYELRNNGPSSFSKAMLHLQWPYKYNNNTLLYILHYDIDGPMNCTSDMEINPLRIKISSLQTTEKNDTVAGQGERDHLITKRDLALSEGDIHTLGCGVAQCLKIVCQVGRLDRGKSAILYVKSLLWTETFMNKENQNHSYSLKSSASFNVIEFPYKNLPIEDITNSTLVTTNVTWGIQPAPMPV
Sequence (P18084 24-719 limits assumed): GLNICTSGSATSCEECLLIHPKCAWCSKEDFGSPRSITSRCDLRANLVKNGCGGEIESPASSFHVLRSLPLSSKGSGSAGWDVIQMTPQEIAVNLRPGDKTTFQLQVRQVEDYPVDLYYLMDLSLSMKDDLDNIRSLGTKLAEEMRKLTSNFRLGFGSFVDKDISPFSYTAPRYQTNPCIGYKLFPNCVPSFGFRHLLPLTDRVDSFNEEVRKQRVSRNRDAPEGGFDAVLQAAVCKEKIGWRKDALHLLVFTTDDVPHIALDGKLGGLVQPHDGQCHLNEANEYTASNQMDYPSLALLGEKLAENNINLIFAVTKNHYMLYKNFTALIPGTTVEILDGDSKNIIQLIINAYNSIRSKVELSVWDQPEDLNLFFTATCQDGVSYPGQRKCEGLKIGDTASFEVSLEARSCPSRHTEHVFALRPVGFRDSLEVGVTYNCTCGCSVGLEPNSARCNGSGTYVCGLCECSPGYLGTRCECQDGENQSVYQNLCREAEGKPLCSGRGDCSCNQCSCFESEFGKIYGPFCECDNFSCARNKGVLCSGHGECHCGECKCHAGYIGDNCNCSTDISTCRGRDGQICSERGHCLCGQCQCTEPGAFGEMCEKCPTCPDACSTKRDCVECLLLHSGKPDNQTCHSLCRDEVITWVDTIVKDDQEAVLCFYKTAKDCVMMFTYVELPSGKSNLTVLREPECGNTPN
assay summary: Solid Phase Receptor Assay (SPRA) for αVβ5 function
Format: binding
condition set: plate-bound human vitronectin
measured property: log10 IC50 (log10 of the value in nM)
# values: log10(IC50), units nM

>  <compound>
COc1ccc(C2=CCOCC2)cc1C(CC(=O)O)Cc1cc(OCCc2ccc3c(n2)NCCC3)n(C)n1 (stereo not shown) [Example 42]

>  <log10 IC50>
1.15

$$$$
>  <compound>
Cn1nc(CC(CC(=O)O)c2cc(C(C)(C)C)ccc2C#N)cc1OCCc1ccc2c(n1)NCCC2 (stereo not shown) [Example 18]

>  <log10 IC50>
0.60

$$$$

Reported log10 IC50 for COc1c(C(C)C)cc(C(CC(=O)O)Cc2csc(CCCc3ccc4c(n3)NCCC4)n2)cc1C(C)C (stereo not shown) [Example 26] was 2.79

Reported log10 IC50 for Cn1nc(CC(CC(=O)O)c2cc(C(C)(C)C)ccc2Br)cc1OCCc1ccc2c(n1)NCCC2 (stereo not shown) [Example 17] was 2.36
